# Measurement Notes: Therapeutic index, ratio of TD50 for human MC65 cells to EC50 for […] human MC65 cells
# Format: cell-based
# Measurement Context: read-out: TI
Readout Label: selectivity ratio

Compound | Value Modifier | Observed
Cc1cc2c(c(=O)o1)C=C1CC[C@H](C(C)CNCc3ccc(OCc4ccccc4)c(OCc4ccccc4)c3)C[C@@H]1O2 (mixture of isomers) | = | 14.2
Cc1cc2c(c(=O)o1)C=C1CC[C@H](C(C)CNCc3cccc(O)c3)C[C@@H]1O2 (stereo not given in full) | > | 10.7
COc1ccc(CNCC(C)[C@H]2CCC3=Cc4c(cc(C)oc4=O)O[C@H]3C2)cc1O (mixture of isomers) | > | 32.1
Cc1cc2c(c(=O)o1)C=C1CC[C@H](C(C)CNCc3ccccc3O)C[C@@H]1O2 (mixture of isomers) | = | 12.6
Cc1cc2c(c(=O)o1)C=C1CC[C@H](C(C)CNCc3ccc4cc(O)ccc4c3)C[C@@H]1O2 (mixture of isomers) | = | 52.5
Cc1cc2c(c(=O)o1)C=C1CC[C@H](C(C)CNCc3ccc(CO)cc3)C[C@@H]1O2 (mixture of isomers) | > | 495
Cc1cc2c(c(=O)o1)C=C1CC[C@H](C(C)CNCc3ccc(Cl)cc3)C[C@@H]1O2 (mixture of isomers) | = | 17.2
COC(=O)c1ccc(CNCC(C)[C@H]2CCC3=Cc4c(cc(C)oc4=O)O[C@H]3C2)cc1 (mixture of isomers) | > | 65
COc1cc(CNCC(C)[C@H]2CCC3=Cc4c(cc(C)oc4=O)O[C@H]3C2)ccc1O (mixture of isomers) | = | 109
Cc1cc2c(c(=O)o1)C=C1CC[C@H](C(C)CNCc3ccc(O)c([N+](=O)[O-])c3)C[C@@H]1O2 (mixture of isomers) | > | 13

====

Below, each entry is listed with its recorded selectivity ratio.
# Measurement Notes: Therapeutic index, ratio of TD50 for human MC65 cells to EC50 for […] human MC65 cells
# Format: cell-based
# Measurement Context: read-out: TI

Compound | Value Modifier | selectivity ratio
Cc1cc2c(c(=O)o1)C=C1CC[C@H](C(C)CNCc3c(O)ccc4ccccc34)C[C@@H]1O2 (mixture of isomers) | = | 133
Cc1cc2c(c(=O)o1)C=C1CC[C@H](C(C)CNCc3ccc(O)c(F)c3)C[C@@H]1O2 (mixture of isomers) | > | 746
Cc1cc2c(c(=O)o1)C=C1CC[C@H](C(C)CNCc3ccc4c(c3)OCO4)C[C@@H]1O2 (mixture of isomers) | > | 42.4
Cc1cc2c(c(=O)o1)C=C1CC[C@H](C(C)CNCc3ccc(OCCO)cc3)C[C@@H]1O2 (mixture of isomers) | > | 2.04
COc1ccc(CNCC(C)[C@H]2CCC3=Cc4c(cc(C)oc4=O)O[C@H]3C2)c2ccccc12 (some centres undefined) | = | 24.6
Cc1cc2c(c(=O)o1)C=C1CC[C@H](C(C)CNCc3ccc(O)c(Br)c3)C[C@@H]1O2 (mixture of isomers) | > | 78.2
COc1cc(CNCC(C)[C@H]2CCC3=Cc4c(cc(C)oc4=O)O[C@H]3C2)cc(OC)c1O (mixture of isomers) | > | 39.7
Cc1cc2c(c(=O)o1)C=C1CC[C@H](C(C)CNCc3cc(O)cc4ccccc34)C[C@@H]1O2 (mixture of isomers) | = | 31.1
Cc1cc2c(c(=O)o1)C=C1CC[C@H](C(C)CNCc3ccc(N(C)C)cc3)C[C@@H]1O2 (mixture of isomers) | = | 8.76
Cc1cc2c(c(=O)o1)C=C1CC[C@H](C(C)CNCc3ccc(C=O)cc3)C[C@@H]1O2 (mixture of isomers) | = | 6.15
COc1ccc(CNCC(C)[C@H]2CCC3=Cc4c(cc(C)oc4=O)O[C@H]3C2)cc1 (single isomer, unassigned) | > | 18.1
Cc1cc2c(c(=O)o1)C=C1CC[C@H](C(C)CNCc3ccccc3)C[C@@H]1O2 (mixture of isomers) | = | 11.5
Cc1cc2c(c(=O)o1)C=C1CC[C@H](C(C)CNC(=O)c3ccccc3O)C[C@@H]1O2 (some centres undefined) | = | 1.07
Cc1cc2c(c(=O)o1)C=C1CC[C@H](C(C)Cn3cnc(N)c4ncnc3-4)C[C@@H]1O2 (some centres undefined) | = | 325

====

# Measurement Notes: Cytotoxicity against human MC65 cells by MTT assay
# Assay type: cell-based
# Measurement Context: read-out: TD50 (the source's name)

Compound | CC50
Cc1cc2c(c(=O)o1)C=C1CC[C@H](C(C)CNCc3cccc(O)c3)C[C@@H]1O2 (stereo partly drawn) | > 50 µM
Cc1cc2c(c(=O)o1)C=C1CC[C@H](C(C)CNCc3ccc(OCCO)cc3)C[C@@H]1O2 (mixture of isomers) | > 50 µM
COc1ccc(CNCC(C)[C@H]2CCC3=Cc4c(cc(C)oc4=O)O[C@H]3C2)cc1 (single isomer, unassigned) | > 50 µM
